# Tested on: Hec50 cells
# assay_info: Cell viability by WST-1 assay in Hec50 cells
# Assay type: cell-based
# conditions_used: pristimerin 72 hours

| compound | tgt | IC50 |
| --- | --- | --- |
| COC(=O)[C@]1(C)CC[C@]2(C)CC[C@]3(C)C4=CC=C5C(=CC(=O)C(O)=C5C)[C@]4(C)CC[C@@]3(C)[C@@H]2C1 [pristimerin, Pristimerin] | Hec50 cells | < 1000 nM |
